# TARGET_DESC: purified recombinant Yck2 (Candida albicans, UniProt A0A1D8PKB4)
# Construct: Yck2 residues 37-345 were PCR amplified from C. albicans genomic DNA; His6 (N); TEV protease site (N)
# Sequence (A0A1D8PKB4 entry or part of it): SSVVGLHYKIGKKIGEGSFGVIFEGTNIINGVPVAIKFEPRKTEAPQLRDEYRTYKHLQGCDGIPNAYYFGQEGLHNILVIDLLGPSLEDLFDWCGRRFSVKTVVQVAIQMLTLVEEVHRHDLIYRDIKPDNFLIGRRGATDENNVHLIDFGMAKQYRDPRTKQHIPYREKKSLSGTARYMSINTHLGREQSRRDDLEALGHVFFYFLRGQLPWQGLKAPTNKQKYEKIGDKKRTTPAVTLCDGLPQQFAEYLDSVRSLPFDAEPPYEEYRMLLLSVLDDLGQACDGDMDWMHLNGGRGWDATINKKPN
# ASSAY_SUMMARY: HotSpot kinase assay
RESULT_TYPE: pIC50
One number for each entry, as −log10 of the molar value.

Here are 3 molecules together with their reported answers.
OC(CN1CCC(NCc2ccc3c(-c4ccncc4)c(-c4ccc(F)cc4)nn3c2)CC1)(Cn1cncn1)c1ccc(F)cc1F (stereo not shown) | 8.51
O=C(NCCC(O)(Cn1cncn1)c1ccc(F)cc1F)c1ccc2c(-c3ccncc3)c(-c3ccc(F)cc3)nn2c1 (stereo not shown) | 8.79
Nc1nccc(-c2c(-c3ccc(F)cc3)ncn2C2CCN(CCC(=O)NC3CCN(CC(O)(Cn4cncn4)c4ccc(F)cc4F)CC3)CC2)n1 (stereo not shown) | 8.09

Please report pIC50 for every entry that follows.
1. O=C(NCC1CCN(CC(O)(Cn2cncn2)c2ccc(F)cc2F)CC1)c1ccc2c(-c3ccncc3)c(-c3ccc(F)cc3)nn2c1 (stereo not shown)
2. Cn1cc(-c2ccncc2COC2CCN(CC(O)(Cn3cncn3)c3ccc(F)cc3F)CC2)c(-c2ccc(F)cc2)n1 (stereo not shown)
3. Nc1nccc(-c2c(-c3ccc(F)cc3)ncn2C2CCN(CCCn3c4c(c5cc(Cl)ccc53)CCNC4)CC2)n1
4. Cn1cc(-c2ccnc3c2C(=O)N(C2CCN(CC(O)(Cn4cncn4)c4ccc(F)cc4F)CC2)C3)c(-c2ccc(F)cc2)n1 (stereo not shown)
5. Cn1cc(-c2ccnc3c2C(=O)N(CC2CCN(C[C@@](O)(Cn4cncn4)c4ccc(F)cc4F)CC2)C3)c(-c2ccc(F)cc2)n1
6. CC(C)(C)OC(=O)N1CCc2c(n(CCCN3CCC(n4cnc(-c5ccc(F)cc5)c4-c4ccnc(N)n4)CC3)c3ccc(Cl)cc23)C1
7. O[C@](CNCc1ccc2c(-c3ccncc3)c(-c3ccc(F)cc3)nn2c1)(Cn1cncn1)c1ccc(F)cc1F

1. 7.43
2. 7.32
3. 8.58
4. 7.81
5. 8.94
6. 7.79
7. 8.68
